assay protocol: Drug metabolism assessed as disappearance of compound at pH 3.5 at 25 degC by HPLC analysis
Assay type: physicochemical
settings: read-out: Drug metabolism
experimental endpoint: degraded (%)
Write down the numeric answer in % and omit the unit.

Query: Can you look up the measured degraded of `CCCCC[C@H](O)/C=C/[C@H]1[C@H](O)CC2(OCCO2)[C@@H]1C/C=C\CCCC(=O)O` for me?
Response: 70
